- Test: Research on compound microsome: prototype remaining and transformation to Atrasentan in human liver microsomes (+NADPH)
- Assay type: in vitro ADME
- Condition parameters: human liver microsome (+NADPH), 37° C., time 60 min
Metric: Prototype remaining quantity (%) Mean

Some solved entries appear below for comparison.
Compound: CCCCN(CCCC)C(=O)CN1C[C@H](c2ccc3c(c2)OCO3)[C@@H](C(=O)OC(C)OC(=O)OCC)[C@@H]1c1ccc(OC)cc1 (stereo partly drawn) [Compound 2]
Reading: 1.6
//
Compound: CCCCN(CCCC)C(=O)CN1C[C@H](c2ccc3c(c2)OCO3)[C@@H](C(=O)OC(C)OC(=O)OC[C@@H]2COCCO2)[C@@H]1c1ccc(OC)cc1 (stereo partly drawn) [Compound 11]
Reading: 0.0
//
Compound: CCCCN(CCCC)C(=O)CN1C[C@H](c2ccc3c(c2)OCO3)[C@@H](C(=O)OC(C)OC(=O)OC[C@H]2COCCO2)[C@@H]1c1ccc(OC)cc1 (stereo partly drawn) [Compound 9]
Reading: 0.0

1. CCCCN(CCCC)C(=O)CN1C[C@H](c2ccc3c(c2)OCO3)[C@@H](C(=O)OC(C)OC(=O)OC2COC2)[C@@H]1c1ccc(OC)cc1 (stereo partly drawn) [Compound 10]
2. CCCCN(CCCC)C(=O)CN1C[C@H](c2ccc3c(c2)OCO3)[C@@H](C(=O)OC(C)OC(=O)OCCO)[C@@H]1c1ccc(OC)cc1 (stereo partly drawn) [Compound 8]
3. CCCCN(CCCC)C(=O)CN1C[C@H](c2ccc3c(c2)OCO3)[C@@H](C(=O)OC(C)OC(=O)OC2CC2)[C@@H]1c1ccc(OC)cc1 (stereo partly drawn) [Compound 7]
Sort the 3 compounds by Prototype remaining quantity (%) Mean; largest first, smallest last. Ranked list of labels, please, in the requested order.
3, 2, 1
(3: 0.47%, 2: 0.03%, 1: 0.0%)

---

- Test: Research on compound microsome: prototype remaining and transformation to Atrasentan in human liver microsomes (+NADPH)
- Format: in vitro ADME
- Condition parameters: human liver microsome (+NADPH), 37° C., time 20 min
Metric: Prototype remaining quantity (%) Mean

Molecule: CCCCN(CCCC)C(=O)CN1C[C@H](c2ccc3c(c2)OCO3)[C@@H](C(=O)OC(C)OC(=O)OCCNC)[C@@H]1c1ccc(OC)cc1 (stereo partly drawn) [Compound 5]
Reading: 0

a. CCCCN(CCCC)C(=O)CN1C[C@H](c2ccc3c(c2)OCO3)[C@@H](C(=O)O)[C@@H]1c1ccc(OC)cc1 [Atrasentan, reference compound]
b. CCCCN(CCCC)C(=O)CN1C[C@H](c2ccc3c(c2)OCO3)[C@@H](C(=O)OC(C)OC(=O)OC(C)C)[C@@H]1c1ccc(OC)cc1 (stereo partly drawn) [Compound 3]
c. CCCCN(CCCC)C(=O)CN1C[C@H](c2ccc3c(c2)OCO3)[C@@H](C(=O)OCOC(=O)OCC)[C@@H]1c1ccc(OC)cc1 [Compound 1]
d. CCCCN(CCCC)C(=O)CN1C[C@H](c2ccc3c(c2)OCO3)[C@@H](C(=O)OC(C)OC(=O)OC2COC2)[C@@H]1c1ccc(OC)cc1 (stereo partly drawn) [Compound 10]
e. CCCCN(CCCC)C(=O)CN1C[C@H](c2ccc3c(c2)OCO3)[C@@H](C(=O)OC(C)OC(=O)OC2CC2)[C@@H]1c1ccc(OC)cc1 (stereo partly drawn) [Compound 7]
Sort the 5 molecules by Prototype remaining quantity (%) Mean; largest first, smallest last. Ranked list of labels, please, in the requested order.
a, c, e, b, d

A. CCCCN(CCCC)C(=O)CN1C[C@H](c2ccc3c(c2)OCO3)[C@@H](C(=O)OC(C)OC(=O)OCC)[C@@H]1c1ccc(OC)cc1 (stereo partly drawn) [Compound 2]
B. CCCCN(CCCC)C(=O)CN1C[C@H](c2ccc3c(c2)OCO3)[C@@H](C(=O)OC(C)OC(=O)OCCO)[C@@H]1c1ccc(OC)cc1 (stereo partly drawn) [Compound 8]
C. CCCCN(CCCC)C(=O)CN1C[C@H](c2ccc3c(c2)OCO3)[C@@H](C(=O)OC(C)OC(=O)OC)[C@@H]1c1ccc(OC)cc1 (stereo partly drawn) [Compound 4]
D. CCCCN(CCCC)C(=O)CN1C[C@H](c2ccc3c(c2)OCO3)[C@@H](C(=O)OC(C)OC(=O)OC[C@@H]2COCCO2)[C@@H]1c1ccc(OC)cc1 (stereo partly drawn) [Compound 11]
E. CCCCN(CCCC)C(=O)CN1C[C@H](c2ccc3c(c2)OCO3)[C@@H](C(=O)OC(C)OC(=O)OC[C@H]2COCCO2)[C@@H]1c1ccc(OC)cc1 (stereo partly drawn) [Compound 9]
Sort the 5 molecules by Prototype remaining quantity (%) Mean; largest first, smallest last. Ranked list of labels, please, in the requested order.
A, D, E, B, C
(A: 67.8%, D: 0.5%, E: 0.1%, B: 0.04%, C: 0%)
